assay: Acute toxicity in mice; format: in vivo; details: mouse, in vivo, po, suspension in 0.5% carboxymethylcellulose sodium, read-out: LD50 for p.o.
observation type: LD50 at 336 h

Any idea what LD50 at 336 h was measured for O=c1cc(CCN2CCC(c3c[nH]c4ccccc34)CC2)c2ccccc2[nH]1 [III-2] ? > 3000 mg/kg
